Recorded Percent decrease (of the edema reaction) After 3 hours by entry
# System: ovalbumin-induced systemic edema
# methodSummary: Ovalbumin-induced systemic edema method (anti-inflammatory action)
# Format: in vivo
# conditionNotes: rats, oral 100 mg/kg given 1 h before and simultaneously with ovalbumin; after 3 hours
Numbers only here, please. The scale is %.

{"columns": ["molecule", "outputUnit", "recordedResult"],
 "data": [
  ["CN1Cc2ccsc2C(O)C1 (stereo not shown) [Derivative 29]", "%", 59],
  ["O=C(CN1CCCC1)N1Cc2sccc2C(O)C1 (stereo not shown) [Derivative 2]", "%", 44],
  ["O=C(Nc1ccccc1)N1Cc2sccc2C(O)C1 (stereo not shown) [Derivative 5]", "%", 43],
  ["CC(=O)CCN1Cc2ccsc2C(O)C1 (stereo not shown) [Derivative 7]", "%", 52],
  ["CC(=O)OC1CN(Cc2ccccc2Cl)Cc2sccc21 (stereo not shown) [Derivative 18]", "%", 58]
]}

API: value(readout=Percent decrease (of the edema reaction) After 3 hours, system=ovalbumin-induced systemic edema) for record CC(=O)OC1CN(C)Cc2sccc21 (stereo not shown) [Derivative 12] 59

Lab request: please report Percent decrease (of the edema reaction) After 3 hours under test system ovalbumin-induced systemic edema for COc1cc(C(=O)N2Cc3sccc3C(O)C2)cc(OC)c1OC (stereo not shown) [Derivative 26] 63

====

The following molecules are shown together with reported Percent anti-inflammatory activity after 5 hours values.
# System: carrageenin-induced edema
# methodSummary: Localized carrageenin-induced edema method (anti-inflammatory action)
# Type: in vivo
# conditionNotes: rats, oral 100 mg/kg given 1 h before, simultaneously with, and 1 h and 2.5 h after carrageenin; after 5 hours
Answers without a unit are incomplete; give the number and then its unit.

Below are worked cases with known answers.
{"columns": ["molecule", "recordedResult"],
 "data": [
  ["CC(=O)CCN1Cc2ccsc2C(O)C1 (stereo not shown)", "60%"],
  ["CC(=O)OC1CN(Cc2ccccc2Cl)Cc2sccc21 (stereo not shown)", "57%"],
  ["O=C(CN1CCCC1)N1Cc2sccc2C(O)C1 (stereo not shown)", "55%"],
  ["CC(=O)OC1CN(C)Cc2sccc21 (stereo not shown)", "58%"],
  ["O=C(Nc1ccccc1)N1Cc2sccc2C(O)C1 (stereo not shown)", "55%"]
]}

Can you share its Percent anti-inflammatory activity after 5 hours? I mean this molecule: COc1cc(C(=O)N2Cc3sccc3C(O)C2)cc(OC)c1OC (stereo not shown) 54%

For the molecule shown here, CN1Cc2ccsc2C(O)C1 (stereo not shown) , give the reported Percent anti-inflammatory activity after 5 hours. 61%

====

Recorded measurements of LD50 at 24 h, one per entry
# methodSummary: in vivo
# conditionNotes: mouse, mice, intravenous route, calculated by method of Miller and Tainter, read-out: LD50 /24 hrs/kg body weight
Numeric only. Scale: mg/kg

The cases that follow already have their LD50 at 24 h on record.
{"columns": ["molecule", "endpointName", "recordedResult"],
 "data": [
  ["CC(=O)CCN1Cc2sccc2C(O)C1 (centres unmarked) [Derivative 16]", "LD50 at 24 h", 250],
  ["CN1Cc2ccsc2C(O)C1 (centres unmarked) [Derivative 29]", "LD50 at 24 h", 350],
  ["CC(=O)OC1CN(Cc2ccccc2Cl)Cc2ccsc21 (centres unmarked) [Derivative 8]", "LD50 at 24 h", 200]
]}

Quick one: LD50 at 24 h of O=[N+]([O-])c1ccc(CN2Cc3ccsc3C(O)C2)cc1 (centres unmarked) [Derivative 1] ? 90

What value of measured LD50 at 24 h is listed for CC1c2sccc2C(O)CN1C (centres unmarked) [Derivative 11] ? 220

Value lookup for LD50 at 24 h; key = CCCNC(=O)OC1CN(C)Cc2sccc21 (centres unmarked) [Derivative 9] 220

What does the record list as LD50 at 24 h for CN1Cc2sccc2C(O)C1 (centres unmarked) [Derivative 10] ? 340

Need LD50 at 24 h, item CC(=O)OC1CN(C)Cc2sccc21 (centres unmarked) [Derivative 12] 260
